Test system: A549 cells
Test: CCK-8 cell viability / cytotoxicity, A549
Type: cell-based
Conditions: Homo sapiens, read-out: IC50 of pemetrexed, A549, before sensitization
endpoint.name: IC50 (nM)
Please respond with the number in nM and leave the unit unwritten.

Give the reported value of IC50 for this record: Nc1nc2[nH]cc(CCc3ccc(C(=O)N[C@@H](CCC(=O)O)C(=O)O)cc3)c2c(=O)[nH]1
245

====

Test system: NCI-H1975 cells
Experiment: CCK-8 cell viability / cytotoxicity, NCI-H1975
Assay type: cell-based
Details: Homo sapiens, NCI-H1975; read-out: IC50 of pemetrexed, H1975, before sensitization
endpoint.name: pIC50
Reminder that pIC50 means the negative base-10 logarithm of the concentration expressed in mol/L.

State pIC50 (NCI-H1975 cells) of Nc1nc2[nH]cc(CCc3ccc(C(=O)N[C@@H](CCC(=O)O)C(=O)O)cc3)c2c(=O)[nH]1 .
5.50

These measurements were taken from paper PMC7374170.
